target: recombinantly expressed human PARP-1 enzyme (Homo sapiens, UniProt P09874); test: PARP enzyme assay; assay type: biochemical; conditions: DNA-activated PARP-1, 200 μM NAD, tritium-labeled NAD incorporation, pH=8.0, room temperature, 1 hour
Sequence (P09874 whole entry): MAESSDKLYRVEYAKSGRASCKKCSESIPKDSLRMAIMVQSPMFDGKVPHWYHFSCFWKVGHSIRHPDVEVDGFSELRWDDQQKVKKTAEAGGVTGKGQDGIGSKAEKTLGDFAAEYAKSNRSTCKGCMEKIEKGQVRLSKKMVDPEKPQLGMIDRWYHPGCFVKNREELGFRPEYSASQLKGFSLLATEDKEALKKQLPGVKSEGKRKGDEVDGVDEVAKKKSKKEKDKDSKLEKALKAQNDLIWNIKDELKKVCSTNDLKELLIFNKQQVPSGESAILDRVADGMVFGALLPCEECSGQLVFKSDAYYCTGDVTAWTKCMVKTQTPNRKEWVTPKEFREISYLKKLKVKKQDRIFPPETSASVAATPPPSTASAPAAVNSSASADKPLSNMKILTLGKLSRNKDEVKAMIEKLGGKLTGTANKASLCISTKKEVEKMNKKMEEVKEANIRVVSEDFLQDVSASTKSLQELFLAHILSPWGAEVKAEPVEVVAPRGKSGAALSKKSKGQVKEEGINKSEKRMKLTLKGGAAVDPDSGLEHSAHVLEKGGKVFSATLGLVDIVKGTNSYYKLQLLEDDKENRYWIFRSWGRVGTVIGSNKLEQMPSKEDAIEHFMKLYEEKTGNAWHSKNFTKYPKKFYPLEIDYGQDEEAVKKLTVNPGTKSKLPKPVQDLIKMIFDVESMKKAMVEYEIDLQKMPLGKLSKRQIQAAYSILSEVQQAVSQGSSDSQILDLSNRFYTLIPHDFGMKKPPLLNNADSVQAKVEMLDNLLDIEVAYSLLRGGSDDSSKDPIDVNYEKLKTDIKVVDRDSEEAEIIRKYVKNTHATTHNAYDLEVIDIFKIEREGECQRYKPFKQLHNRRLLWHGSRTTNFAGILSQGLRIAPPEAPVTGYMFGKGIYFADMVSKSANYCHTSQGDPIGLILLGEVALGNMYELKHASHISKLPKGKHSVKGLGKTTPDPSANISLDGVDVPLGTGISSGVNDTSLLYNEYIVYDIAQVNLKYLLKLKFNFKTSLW
Class definitions on IC50: bin 1 (below 4 µM), bin 2 (4 µM to below 6 µM), bin 3 (6 µM or more)

Below are worked cases with known answers.
CCc1cc(Nc2ccc(C(C)=O)cc2)c(C)[nH]c1=O : bin 2
CCc1cc(Nc2ccc(S(N)(=O)=O)cc2)c(C)[nH]c1=O : bin 3
CCc1cc(Nc2ccc3c(c2)N(C(C)=O)CC3)c(C)[nH]c1=O : bin 1

Exam item: # bin lookup: classify CCc1cc(Nc2cccc(C#N)c2)c(C)[nH]c1=O by its IC50
Marked response: bin 3

Exam item: # bin lookup: classify CCc1cc(Nc2cccc(NC(C)=O)c2)c(C)[nH]c1=O by its IC50
Marked response: bin 1

Exam item: # bin lookup: classify CCc1cc(Nc2cccc(CO)c2)c(C)[nH]c1=O by its IC50
Marked response: bin 3

Exam item: # bin lookup: classify CCc1cc(Nc2cccc(C(C)=O)c2)c(C)[nH]c1=O by its IC50
Marked response: bin 1

Exam item: # bin lookup: classify CCc1cc(Nc2ccncc2)c(C)[nH]c1=O by its IC50
Marked response: bin 3

Exam item: # bin lookup: classify CCc1cc(Nc2ccc(Oc3cccnc3)cc2)c(C)[nH]c1=O by its IC50
Marked response: bin 2

Exam item: # bin lookup: classify CCc1cc(Nc2cccc(C(N)=O)c2)c(C)[nH]c1=O by its IC50
Marked response: bin 1

Exam item: # bin lookup: classify CCc1cc(Oc2cccc(OC)c2)c(C)[nH]c1=O by its IC50
Marked response: bin 2

Exam item: # bin lookup: classify CCc1cc(Nc2ccc(S(=O)(=O)Nc3ccccn3)cc2)c(C)[nH]c1=O by its IC50
Marked response: bin 3

Exam item: # bin lookup: classify CCc1cc(Nc2ccc(NC(C)=O)cn2)c(C)[nH]c1=O by its IC50
Marked response: bin 1

Exam item: # bin lookup: classify CCc1cc(Nc2cccnc2)c(C)[nH]c1=O by its IC50
Marked response: bin 3
